target-or-system: CD33 (Sino Biological, Cat #12238-H08H) (UniProt P20138 18-259)
Sequence (P20138 18-259 limits assumed): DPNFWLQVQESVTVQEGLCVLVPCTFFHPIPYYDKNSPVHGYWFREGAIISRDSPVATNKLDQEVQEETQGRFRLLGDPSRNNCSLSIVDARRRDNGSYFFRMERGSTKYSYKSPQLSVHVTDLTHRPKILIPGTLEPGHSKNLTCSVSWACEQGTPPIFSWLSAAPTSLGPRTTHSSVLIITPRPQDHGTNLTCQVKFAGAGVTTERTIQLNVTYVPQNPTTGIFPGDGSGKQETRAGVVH
measurement-protocol: BLI, IgG captured on anti-human Fc sensor, 50 nM CD33, pH 7.4 vs pH 5.4
recorded-metric: binding result

* MYT1220 (antibody, V domains shown, IgG; IMGN779 VH variant #8 (Y33H)) VH: QVQLQQPGAEVVKPGASVKMSCKASGYTFTSYHIHWIKQTPGQGLEWVGVIYPGNDDISYNQKFQGKATLTADKSSTTAYMQLSSLTSEDSAVYYCAREVRLRYFDVWGQGTTVTVSS VL: EIVLTQSPGSLAVSPGERVTMSCKSSQSVFFSSSQKNYLAWYQQIPGQSPRLLIYWASTRESGVPDRFTGSGSGTDFTLTISSVQPEDLAIYYCHQYLSSRTFGQGTKLEIK | binds

Data origin: patent US20220324969A1
